- subject of test: soluble guanylate cyclase (sGC) (Homo sapiens (Human), UniProt Q02108+Q02153)
- Sequence (Q02153 whole entry): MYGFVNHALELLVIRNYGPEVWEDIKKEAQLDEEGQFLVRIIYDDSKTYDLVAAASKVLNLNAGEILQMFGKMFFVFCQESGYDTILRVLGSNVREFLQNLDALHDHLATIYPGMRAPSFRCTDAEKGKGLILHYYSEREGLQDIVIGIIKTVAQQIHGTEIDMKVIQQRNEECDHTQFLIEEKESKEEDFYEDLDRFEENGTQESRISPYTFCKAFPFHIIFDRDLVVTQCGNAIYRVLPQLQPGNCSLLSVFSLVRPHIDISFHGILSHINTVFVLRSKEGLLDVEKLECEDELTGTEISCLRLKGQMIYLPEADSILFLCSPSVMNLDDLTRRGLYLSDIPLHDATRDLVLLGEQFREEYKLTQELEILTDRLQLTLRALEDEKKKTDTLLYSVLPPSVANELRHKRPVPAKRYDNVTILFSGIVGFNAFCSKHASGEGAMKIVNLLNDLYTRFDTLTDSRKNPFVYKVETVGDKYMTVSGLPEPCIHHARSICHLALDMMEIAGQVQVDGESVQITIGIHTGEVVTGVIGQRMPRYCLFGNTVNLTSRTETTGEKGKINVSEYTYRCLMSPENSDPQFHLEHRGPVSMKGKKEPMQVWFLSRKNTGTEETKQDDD
- Sequence (Q02108 whole entry): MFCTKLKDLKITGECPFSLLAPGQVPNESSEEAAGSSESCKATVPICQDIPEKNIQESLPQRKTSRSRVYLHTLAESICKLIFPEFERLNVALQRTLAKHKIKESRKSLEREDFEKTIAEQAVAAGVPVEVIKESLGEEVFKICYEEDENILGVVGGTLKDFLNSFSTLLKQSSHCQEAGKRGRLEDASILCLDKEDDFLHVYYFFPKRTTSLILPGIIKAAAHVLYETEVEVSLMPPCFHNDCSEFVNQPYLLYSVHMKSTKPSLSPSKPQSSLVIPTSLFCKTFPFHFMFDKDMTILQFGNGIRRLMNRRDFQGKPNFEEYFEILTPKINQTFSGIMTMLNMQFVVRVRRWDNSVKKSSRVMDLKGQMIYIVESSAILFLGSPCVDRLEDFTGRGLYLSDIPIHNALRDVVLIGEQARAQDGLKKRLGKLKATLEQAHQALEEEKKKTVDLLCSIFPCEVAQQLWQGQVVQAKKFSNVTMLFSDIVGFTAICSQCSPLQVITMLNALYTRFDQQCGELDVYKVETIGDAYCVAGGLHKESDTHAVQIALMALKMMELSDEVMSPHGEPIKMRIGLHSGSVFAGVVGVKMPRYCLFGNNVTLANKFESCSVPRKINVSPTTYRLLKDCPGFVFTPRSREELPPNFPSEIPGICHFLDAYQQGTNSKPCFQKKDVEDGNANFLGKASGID
- experimental details: sGC-HEK-cGMP assay run with SNP incubation (HEK WC assay)
- Type: cell-based
- assay setup: read-out: HEK WC Assay (% Emax at 30 μM with 10 uM SNP)
- Method: Human embryonic kidney cells (HEK293), endogenously expressing soluble guanylate cyclase (sGC), were used to evaluate the activity of test compounds. Compounds stimulating the sGC receptor should cause an increase in the intracellular concentration of cGMP. […] EC50 values were calculated from concentration-response curves generated with GraphPad Prism Software.
measurement kind: Emax

Illustrative cases are given below, each with its answer.
C=CC(C)(C)C(=O)Nc1cnc(-c2cc(-c3ccon3)n(Cc3ccccc3F)n2)nc1N [Compound I-246]: 100 to 120%
Nc1ccnc(-c2cc(-c3ccco3)n(Cc3ccccc3F)n2)n1 [Compound I-284]: 60 to 80%
Nc1nc(-c2cc(-c3ccon3)n(Cc3ccccc3F)n2)ncc1C1(O)CC1 [Compound I-119]: 100 to 120%

Exercise: Look up Emax: CC(C)(C)C(=O)Nc1cnc(-c2cc(-c3ccon3)n(Cc3ccccc3F)n2)nc1N [Compound I-277]
Key: 80 to 100%

Exercise: Look up Emax: N#Cc1cnc(-c2cc(-c3ncco3)n(Cc3ccccc3F)n2)nc1O [Compound I-155]
Key: 60 to 80%

Exercise: Look up Emax: Fc1ccccc1Cn1nc(-c2cccc(Br)n2)cc1-c1ccccn1 [Compound I-308]
Key: 0 to 10%

====

- subject of test: soluble guanylate cyclase (sGC) (Homo sapiens (Human), UniProt Q02108+Q02153)
- experimental details: sGC-HEK-cGMP assay run with SNP incubation (HEK WC assay)
- Format: cell-based
- assay setup: read-out: HEK WC Assay (% Emax at 30 μM/with 10 uM SNP)
measurement kind: Emax at 30 µM

Illustrative cases are given below, each with its answer.
COC(=O)N(C)c1c(N)nc(-c2cc(-c3ncco3)n(Cc3ccccc3F)n2)nc1N [Compound I-100]: 40 to 60%
Nc1nc(-c2cc(-c3ccon3)n(Cc3ccccc3F)n2)ncc1NC(=O)OCc1ccccc1 [Compound I-125]: 80 to 100%
CC(C)(C)CC(=O)Nc1cnc(-c2cc(-c3ccon3)n(Cc3ccccc3F)n2)nc1N [Compound I-124]: 60 to 80%
Cn1c(=O)[nH]c2nc(-c3cc(-c4nccs4)n(Cc4ccccc4F)n3)nc(N)c21 [Compound I-96]: 20 to 40%
Nc1ccnc(-c2cc(-c3ncco3)n(Cc3ccccc3F)n2)n1 [Compound I-87]: 100 to 120%
Cl.Nc1cnc(-c2cc(-c3ccon3)n(Cc3ccccc3F)n2)nc1N [Compound I-107, hydrochloride]: 0 to 10%
COC(=O)N(C)c1cnc(-c2cc(-c3ccon3)n(Cc3ccccc3F)n2)nc1N [Compound I-105]: 100 to 120%
Nc1cc(N)nc(-c2cc(-c3ccon3)n(Cc3ccccc3F)n2)n1 [Compound I-103]: 20 to 40%
Fc1ccccc1Cn1nc(-c2ncccn2)cc1-c1cscn1 [Compound I-85]: 100 to 120%
Nc1nc(-c2cc(-c3ccon3)n(Cc3ccccc3F)n2)ncc1-c1cccnc1 [Compound I-127]: 60 to 80%

Exercise: Give the reported Emax at 30 µM for Cn1c(=O)[nH]c2nc(-c3cc(-c4ncco4)n(Cc4ccccc4F)n3)nc(N)c21 [Compound I-101] (system: soluble guanylate cyclase (sGC) (Homo sapiens (Human), UniProt Q02108+Q02153)).
Key: 20 to 40%

Exercise: Give the reported Emax at 30 µM for Nc1nc(-c2cc(-c3ccon3)n(Cc3ccccc3F)n2)ncc1-c1ccccc1 [Compound I-122] (system: soluble guanylate cyclase (sGC) (Homo sapiens (Human), UniProt Q02108+Q02153)).
Key: 60 to 80%

Exercise: Give the reported Emax at 30 µM for COC(=O)Nc1c(N)nc(-c2cc(-c3ccccn3)n(Cc3ccccc3F)n2)nc1N [Compound I-89] (system: soluble guanylate cyclase (sGC) (Homo sapiens (Human), UniProt Q02108+Q02153)).
Key: 0 to 10%

Exercise: Give the reported Emax at 30 µM for Nc1nc(-c2cc(-c3ccon3)n(Cc3ccccc3F)n2)ncc1C1(O)CC1 [Compound I-119] (system: soluble guanylate cyclase (sGC) (Homo sapiens (Human), UniProt Q02108+Q02153)).
Key: > 120%

Exercise: Give the reported Emax at 30 µM for Fc1ccccc1Cn1nc(-c2ncccn2)cc1-c1ccc(Cl)s1 [Compound I-91] (system: soluble guanylate cyclase (sGC) (Homo sapiens (Human), UniProt Q02108+Q02153)).
Key: 10 to 20%

Exercise: Give the reported Emax at 30 µM for Cc1cccc(-c2cc(-c3ncccn3)nn2Cc2ccccc2F)n1 [Compound I-70] (system: soluble guanylate cyclase (sGC) (Homo sapiens (Human), UniProt Q02108+Q02153)).
Key: 0 to 10%

Exercise: Give the reported Emax at 30 µM for COC(=O)Nc1c(N)nc(-c2cc(-c3ncco3)n(Cc3ccccc3F)n2)nc1N [Compound I-99] (system: soluble guanylate cyclase (sGC) (Homo sapiens (Human), UniProt Q02108+Q02153)).
Key: 40 to 60%

====

- subject of test: soluble guanylate cyclase (sGC) (Homo sapiens (Human), UniProt Q02108+Q02153)
- experimental details: sGC-HEK-cGMP assay run with SNP incubation (HEK WC assay)
- Format: cell-based
- assay setup: read-out: HEK WC Assay (% Emax at 10 μM with 10 uM SNP)
measurement kind: Emax

Illustrative cases are given below, each with its answer.
NCC(=O)Nc1cnc(-c2cc(-c3ccon3)n(Cc3ccccc3F)n2)nc1N [Compound I-213]: 10 to 20%
Nc1nc(-c2cc(-c3ccon3)n(Cc3ccccc3F)n2)ncc1NC(=O)[C@@H]1CCCN1 [Compound I-225]: 20 to 40%
COc1cnc(-c2cc(-c3ccon3)n(Cc3ccccc3F)n2)nc1N [Compound I-173]: 40 to 60%
CS(=O)(=O)c1cnc(-c2cc(-c3ccon3)n(Cc3ccccc3F)n2)nc1O [Compound I-196]: 60 to 80%
Cc1ccccc1C(=O)Nc1cnc(-c2cc(-c3ccon3)n(Cc3ccccc3F)n2)nc1N [Compound I-184]: 100 to 120%

Exercise: Look up Emax: CC(C)(C)S(=O)(=O)Nc1cnc(-c2cc(-c3ccon3)n(Cc3ccccc3F)n2)nc1N [Compound I-251]
Key: 20 to 40%

Exercise: Look up Emax: CC(C)(C)OC(=O)Nc1cnc(-c2cc(-c3ncco3)n(Cc3ccccc3F)n2)nc1N [Compound I-148]
Key: 100 to 120%

Exercise: Look up Emax: [2H]C([2H])([2H])C(=O)Nc1cnc(-c2cc(-c3ccon3)n(Cc3ccccc3F)n2)nc1N [Compound I-263]
Key: 100 to 120%

====

- subject of test: soluble guanylate cyclase (sGC) (Homo sapiens (Human), UniProt Q02108+Q02153)
- experimental details: sGC-HEK-cGMP assay run with SNP incubation (HEK WC assay)
- Assay type: cell-based
- assay setup: read-out: HEK WC Assay (% Emax at 30 uM/with 10 uM SNP)
Parameter Emax at 30 µM: see the listing below.

COc1cccc(-c2cc(-c3ccccn3)nn2Cc2ccccc2F)n1: 10 to 20%

Exercise: Look up Emax at 30 µM: `Fc1ccccc1Cn1nc(-c2ccccn2)cc1-c1ccccc1F`
Key: 0 to 10%

Exercise: Look up Emax at 30 µM: `Cc1ccc(-c2c(Br)c(-c3ccccn3)nn2Cc2ccccc2F)cc1`
Key: 0 to 10%

Exercise: Look up Emax at 30 µM: `Cc1ccc(-c2cc(-c3ncccn3)nn2Cc2ccccc2F)cc1`
Key: 0 to 10%

Exercise: Look up Emax at 30 µM: `CC(C)c1cc(-c2ccccn2)nn1Cc1ccccc1F`
Key: 0 to 10%

====

- Test system: Thoracic aortic rings
- experimental details: Alternative thoracic aortic rings assay (Example 19b; resting tension as 100% inhibition)
- Parameters: species or system rat
- assay setup: Rattus norvegicus; 3 μM, Table 10B; read-out: Percent Relaxation at 3 μM
measurement kind: inhibition at 3 µM

Illustrative cases are given below, each with its answer.
CC(C)C(=O)Nc1cnc(-c2cc(-c3ccon3)n(Cc3ccccc3F)n2)nc1N: 80 to 100%
Fc1ccccc1Cn1nc(-c2ncccn2)cc1-c1ccno1: 80 to 100%
COCC(=O)Nc1cnc(-c2cc(-c3ccon3)n(Cc3ccccc3F)n2)nc1N: 80 to 100%

Exercise: Give the reported inhibition at 3 µM for `Nc1nc(-c2cc(-c3ccon3)n(Cc3ccccc3F)n2)ncc1NC(=O)c1nccs1` (system: Thoracic aortic rings).
Key: 80 to 100%

Exercise: Give the reported inhibition at 3 µM for `Nc1nc(-c2cc(-c3ccon3)n(Cc3ccccc3F)n2)ncc1NC(=O)c1ccc(F)cc1` (system: Thoracic aortic rings).
Key: 100 to 120%

Exercise: Give the reported inhibition at 3 µM for `Nc1nc(-c2cc(-c3ccon3)n(Cc3ccccc3F)n2)ncc1NC(=O)C1CC1` (system: Thoracic aortic rings).
Key: 100 to 120%

Exercise: Give the reported inhibition at 3 µM for `Fc1ccccc1Cn1nc(-c2ccccn2)cc1-c1ncon1` (system: Thoracic aortic rings).
Key: 60 to 80%

Exercise: Give the reported inhibition at 3 µM for `CC(C)(C)C(=O)Nc1cnc(-c2cc(-c3ccon3)n(Cc3ccccc3F)n2)nc1N` (system: Thoracic aortic rings).
Key: 80 to 100%
